Measured pKd by item
biological target: soluble recombinant HLA-DR4 (HLA-DRβ1*04:01) (human); experiment: ELISA
Where no end group is shown, it is not given here.
Note on units: pKd is unitless, being -log10 of a concentration expressed in mol/L.

                                     binder  observable  observed
0  QNSLSTEWSPCSVT (not fully specified (N-terminus)) [biotin-labeled QNT-5 332-345 peptide]         pKd      6.30

Now look at this one.
# input Answer with reported pKd of QNSYSTEWSPCSVT (not fully specified (N-terminus)) [biotin-labeled QNT-Y peptide (QNT-5 analogue L335Y)]
# output 7.59
